# Test system: PLCγ phosphorylation by RET/PTC
# Protocol: Activation (phosphorylation) of PLCγ by RET/PTC in Ret-PTC3-5 cells
# Format: cell-based
# Assay Conditions: Ret-PTC3-5 cells, doxycycline, inhibitor for 24 h; read-out: IC50 of inhibition of PLCγ phosphorylation
Measured Quantity: IC50

# molecule `C[C@@H](Nc1ncnc2[nH]c(-c3ccc(O)cc3)cc12)c1ccccc1` ; its IC50 = ~4 nM

====

# Study Target: RET/PTC3 (Homo sapiens)
# Sequence (P07949 with tags, fused parts or gaps): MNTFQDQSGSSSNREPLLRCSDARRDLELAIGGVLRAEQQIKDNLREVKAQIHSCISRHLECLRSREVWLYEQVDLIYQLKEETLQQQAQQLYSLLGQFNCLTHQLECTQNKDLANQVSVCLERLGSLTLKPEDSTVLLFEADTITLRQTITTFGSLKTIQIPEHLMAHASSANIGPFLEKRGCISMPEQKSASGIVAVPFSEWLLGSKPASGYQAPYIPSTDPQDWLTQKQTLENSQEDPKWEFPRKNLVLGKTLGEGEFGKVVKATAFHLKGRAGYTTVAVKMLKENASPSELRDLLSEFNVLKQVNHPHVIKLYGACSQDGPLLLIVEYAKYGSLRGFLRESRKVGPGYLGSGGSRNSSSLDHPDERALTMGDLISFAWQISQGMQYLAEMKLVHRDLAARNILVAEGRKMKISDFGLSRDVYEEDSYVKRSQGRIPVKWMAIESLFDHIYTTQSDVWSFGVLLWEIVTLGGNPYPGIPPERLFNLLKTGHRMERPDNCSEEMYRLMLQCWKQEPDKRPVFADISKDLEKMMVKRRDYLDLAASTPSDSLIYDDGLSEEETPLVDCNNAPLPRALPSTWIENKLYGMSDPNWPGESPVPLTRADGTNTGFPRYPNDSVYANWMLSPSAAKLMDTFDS
# Protocol: RET/PTC autophosphorylation, in vitro immunokinase assay of RET-IP extracts from RET/PTC3-5 cells
# Assay Conditions: RET-IP extracts from RET/PTC3-5 cells treated with doxycycline for 48 h
pIC50: −log10 of the molar value.
Measured Quantity: pIC50

Param item: `C[C@@H](Nc1ncnc2[nH]c(-c3ccc(O)cc3)cc12)c1ccccc1` ; param system: RET/PTC3 (Homo sapiens); output pIC50: ~7.75
